All values here come from patent US20170304450A1.

Assay: Tests of equivalence of bioavailability: plasma pharmacokinetic parameters after subcutaneous injection
Assay type: in vivo, bovines
Settings: both sexes, bovine (cattle), in vivo, sc, 40 mg/kg
Observation Type: AUC(0-t) (µg·h/mL)
One number for each entry, in µg·h/mL.

Request the reported AUC(0-t) associated with "CS(=O)(=O)c1ccc([C@@H](O)[C@@H](CF)NC(=O)C(Cl)Cl)cc1"
196

----------
Assay: Tests of equivalence of bioavailability: plasma pharmacokinetic parameters after subcutaneous injection
Format: in vivo, bovines
Conditions: both sexes, bovine (cattle), plasma, sc, 0.5 mg/kg; read-out: Cmax of meloxicam in plasma
Observation Type: Cmax (ng/mL)
Give bare numbers, in ng/mL.

Request the reported Cmax associated with "Cc1cnc(NC(=O)C2=C(O)c3ccccc3S(=O)(=O)N2C)s1"
2240
